Experiment: Cytotoxic Profiling in NIH 3T3 Cell Line of Diverse Libraries Using Quantitative High-Throughput Screening; further: nearly all actives have a fitted effect of over 55% in size
Settings: NIH 3T3 viability, CellTiter-Glo ATP luminescence, 48-72 h; series mostly up to 96.7 µM
The campaign covered roughly 94,000 compounds. About 4,000 (4.3%) were called active. Another 29% or so got no clear call; they are omitted. The call rests on the fitted dose curve; in most records, active means well fitted inhibition curve with a large enough effect; inconclusive means small, poorly fitted or top-dose-only effect; inactive means no such curve, though single readings can be large or run the other way. The list comes from a sample in which actives are over-represented; it also holds close analogues and randomly drawn compounds.
Valid outcomes are listed here; reply with one: active, inactive

O=C([C@H]1C[C@@H](F)CN1S(=O)(=O)c1ccc(F)c(Cl)c1)N1CCOCC1	inactive
CCn1cc(S(=O)(=O)N2CC[C@@H]3C(=O)NCCCCCCN(Cc4ccncc4)[C@@H]3C2)cn1	inactive
CN1C[C@@H](NC(=O)COc2ccccc2)C[C@H]1c1nc(-c2ccc3c(c2)OCO3)no1	inactive
CN1CCC(N2CCC[C@H]2c2nc(-c3ccc(OC4CCCCC4)nc3)no2)CC1	active

Below: the item to evaluate.
## Input Would you mind telling me which call this test gave O=C(C1CCCCN1Cc1ccc(-c2cccs2)cc1)N1CCOCC1 (stereo not given) ?
## Output inactive

* * *

Experiment: Cytotoxic Profiling in NIH 3T3 Cell Line of Diverse Libraries Using Quantitative High-Throughput Screening; further: nearly all actives have a fitted effect of over 55% in size
Conditions: NIH 3T3 viability, CellTiter-Glo ATP luminescence, 48-72 h; series mostly up to 96.7 µM
Among all 94,000 compounds or so, about 4,000 (4.3%) were called active. Inconclusive results (about 29%) are left out. Calls come from the whole dose curve; as a rule, active = well fitted inhibition curve with a large enough effect; inconclusive = small, poorly fitted or top-dose-only effect; inactive = no such curve, though single readings can be large or run the other way. Only a selection was taken, and actives are over-represented in it overall.
Valid outcomes are listed here; reply with one: Yes for active, No for inactive

Sample answers from the record:
O=C(c1ccc2cc[nH]c2c1)N1CCN(Cc2cnc[nH]2)CC(O)C1 (stereo not drawn)	No
CC1(C)[C@H](Cc2cc(CC3CCCCC3)on2)C[C@@H]1NC(=O)C1CCC1	Yes
CN(Cc1ccccc1)Cc1cc(CC2(NCc3ccc(CO)o3)COC2)no1	No
O=C1CCN([C@@H]2CCC[C@H]2O)c2cc3c(cc2CN1Cc1ccccc1)OCO3	No
COc1ccc(-c2ccc3c(c2)C(=O)N2CCN(C(=O)CC(C)(C)C)C[C@@H]2C(=O)N3)c(OC)c1	No

## Input Would you mind telling me which call this test gave CCCN1CCN(C(=O)C2CCCN(c3cnn(Cc4ccccc4)c(=O)c3)C2)CC1 (stereo not drawn) ?
## Output No

## Input Would you mind telling me which call this test gave O=C(C1CCCN(Cc2cccc(-c3ccc(F)cc3F)c2)C1)N1CCN(Cc2ccccc2)CC1 (stereo not drawn) ?
## Output Yes

## Input Would you mind telling me which call this test gave CC1(C)[C@H](Cc2cc(CC3CCCCC3)on2)C[C@@H]1NC1CCOCC1 ?
## Output Yes

* * *

Assay: Cytotoxic Profiling in NIH 3T3 Cell Line of Diverse Libraries Using Quantitative High-Throughput Screening; further: nearly all actives have a fitted effect of over 55% in size
Settings: NIH 3T3 viability, CellTiter-Glo ATP luminescence, 48-72 h; series mostly up to 96.7 µM
Screen size: about 94,000 compounds; about 4,000 (4.3%) were called active. Inconclusive results (about 29%) are left out. Calls follow the shape of the dose curve; as a rule, active = well fitted inhibition curve with a large enough effect; inconclusive = small, poorly fitted or top-dose-only effect; inactive = no such curve, though single readings can be large or run the other way. This is one part of a sample in which actives are shown more often than they occur.
Valid outcomes are listed here; reply with one: yes (1) = active, no (0) = inactive

Sample answers from the record:
Cc1cc(N2CCC3(CC2)CC(c2ccccc2)C(=O)N3C)ncn1 (stereo not given)	yes (1)
CC1(CCCCc2ccccc2)COc2ccc(C(=O)N3CC[S+](=O)([O-])CC3)cc2N1 (stereo not given)	no (0)
CCOc1cc(=O)n2c(c1C(=O)NCCc1ccccc1)CCCCC2	no (0)
N#Cc1cccc(NC(=O)O[C@@H]2CO[C@H]3[C@@H]2OC[C@@H]3Nc2nccc(-c3ccccc3)n2)c1	yes (1)
COc1ccc(CNC(=O)CC[C@@H]2CNC(=O)[C@@H]3C[C@H](NC(=O)NC(C)C)CN23)cc1	no (0)

## Input Would you mind telling me which call this test gave COc1ccc(OCC2CCN(CC3(O)CCCNC3)CC2)cc1 (stereo not given) ?
## Output yes (1)

## Input Would you mind telling me which call this test gave O=C(Nc1cccnc1)c1ccc2c(c1)OCCN(Cc1ncccn1)C2 ?
## Output no (0)

## Input Would you mind telling me which call this test gave CCOc1ccc(NC(=O)C2(Cc3cccnc3)CCCCC(=O)N2)cc1 (stereo not given) ?
## Output no (0)

## Input Would you mind telling me which call this test gave Cc1noc(C)c1CC(=O)NCC12CCC=C1N(Cc1ccccc1)C(=O)CC2 (stereo not given) ?
## Output no (0)

## Input Would you mind telling me which call this test gave N#Cc1ccc(CN2CCC3(COc4ncccc4[S+](=O)([O-])N3)C2)cc1 (stereo not given) ?
## Output no (0)

* * *

Test: Cytotoxic Profiling in NIH 3T3 Cell Line of Diverse Libraries Using Quantitative High-Throughput Screening; further: nearly all actives have a fitted effect of over 55% in size
Details: NIH 3T3 viability, CellTiter-Glo ATP luminescence, 48-72 h; series mostly up to 96.7 µM
Hit rate of the full screen: of about 94,000 compounds, about 4,000 (4.3%) were called active. About 29% were inconclusive and are not listed. Calls come from the whole dose curve; as a rule, active = well fitted inhibition curve with a large enough effect; inconclusive = small, poorly fitted or top-dose-only effect; inactive = no such curve, though single readings can be large or run the other way. The full list was thinned out, with actives kept by preference.
Valid outcomes are listed here; reply with one: active, inactive

Sample answers from the record:
COc1ccc2[nH]cc(CCNC(=O)CC3=C4CCCCC4N(C)C3=O)c2c1 (stereo not drawn)	inactive
O=C(c1cccc(F)c1)N1CCC(CCOc2ccc(F)cc2)C1 (stereo not drawn)	active
CCc1nc2nccc(-c3ccco3)n2n1	inactive
CN1CC(=O)N(C2CCCNCC2)Cc2c1ncnc2N1CCCC(F)C1 (stereo not drawn)	inactive

## Input Would you mind telling me which call this test gave O=C(NCc1ccccc1)c1ccc2nc(-c3ccnc(Cl)c3)oc2c1 ?
## Output inactive

## Input Would you mind telling me which call this test gave CC1(C(=O)NCC2CCCO2)CCCc2cnc(Nc3ccccc3)nc21 (stereo not drawn) ?
## Output inactive

* * *

Assay: Cytotoxic Profiling in NIH 3T3 Cell Line of Diverse Libraries Using Quantitative High-Throughput Screening; further: nearly all actives have a fitted effect of over 55% in size
Conditions: NIH 3T3 viability, CellTiter-Glo ATP luminescence, 48-72 h; series mostly up to 96.7 µM
Hit rate of the full screen: of about 94,000 compounds, about 4,000 (4.3%) were called active. Roughly 29% stayed inconclusive and do not appear here. Calls come from the whole dose curve; as a rule, active = well fitted inhibition curve with a large enough effect; inconclusive = small, poorly fitted or top-dose-only effect; inactive = no such curve, though single readings can be large or run the other way. The sample as a whole holds a higher share of actives than the screen did.
Valid outcomes are listed here; reply with one: YES = active, NO = inactive

Sample answers from the record:
Cc1ccc2nc3n(c2c1)[C@@H](CNC(=O)c1ccc(C#N)cc1)COC3	YES
COc1ccc(C2Cn3cnc(-c4nc(-c5ccc(OC)cc5OC)no4)c3CO2)cc1 (stereo not drawn)	YES

## Input Would you mind telling me which call this test gave COc1ccc2c(c1)nc1n2[C@@H](CNC(=O)c2ccncc2)COC1 ?
## Output NO

* * *

Assay: Cytotoxic Profiling in NIH 3T3 Cell Line of Diverse Libraries Using Quantitative High-Throughput Screening; further: nearly all actives have a fitted effect of over 55% in size
Settings: NIH 3T3 viability, CellTiter-Glo ATP luminescence, 48-72 h; series mostly up to 96.7 µM
In all, about 94,000 compounds went through this assay and about 4,000 (4.3%) were called active. Inconclusive results (about 29%) are left out. Calls come from the whole dose curve; as a rule, active = well fitted inhibition curve with a large enough effect; inconclusive = small, poorly fitted or top-dose-only effect; inactive = no such curve, though single readings can be large or run the other way. The sample holds actives, similar compounds and a random draw of the others, so the mix is not that of the screen.
Valid outcomes are listed here; reply with one: active, inactive

Sample answers from the record:
Cn1c(=O)n(C)c2cc(S(=O)(=O)N[C@@H]3CCOC[C@H]3O)ccc21	inactive
O=C(NC1CCCCC1)N1CCCCCC1c1nc(-c2cccnc2)no1 (stereo not drawn)	inactive
CN1C(=O)CCC2(CNC(=O)c3ccoc3)CCCC=C12 (stereo not drawn)	inactive
O=c1[nH]c(N2CCOCC2)nc2c1CCN(Cc1cccc(F)c1)CC2	inactive
O=C(c1cccnc1)N1CCC2(CCCN(C3CCOCC3)C2=O)C1 (stereo not drawn)	inactive
COC(=O)[C@@H]1Cc2c([nH]c3ccccc23)[C@H]2C[C@H](NCCNC(C)=O)C[C@@H](c3ccc(C)cc3)N21	active

## Input Would you mind telling me which call this test gave Cc1cc(C)cc(C(=O)NC2CCN(c3cnn(C)c(=O)c3)CC2)c1 ?
## Output active

## Input Would you mind telling me which call this test gave CCc1noc(-c2cccn3c(CNC(=O)C(CC)c4ccccc4)nnc23)n1 (stereo not drawn) ?
## Output inactive

* * *

Assay: Cytotoxic Profiling in NIH 3T3 Cell Line of Diverse Libraries Using Quantitative High-Throughput Screening; further: nearly all actives have a fitted effect of over 55% in size
Details: NIH 3T3 viability, CellTiter-Glo ATP luminescence, 48-72 h; series mostly up to 96.7 µM
About 4,000 (4.3%) of roughly 94,000 compounds were called active. Not shown: some 29% with an inconclusive outcome. Calls follow the shape of the dose curve; as a rule, active = well fitted inhibition curve with a large enough effect; inconclusive = small, poorly fitted or top-dose-only effect; inactive = no such curve, though single readings can be large or run the other way. This is one part of a sample in which actives are shown more often than they occur.
Valid outcomes are listed here; reply with one: active, inactive

Sample answers from the record:
CC(C)CN1C(=O)COC[C@@H]1[C@H](O)c1ccc(NC(=O)Cc2ccccc2)cc1	inactive
CC(C)CNC(=O)C1COC2(CCC(C)CC2)N1C(=O)c1cccc(F)c1 (configuration not stated)	inactive
O=C(c1cnccn1)N1CCC[C@H](n2c(=O)n(CC3CC3)c3cccnc32)C1	inactive
O=C(NC1CCCC1)N1CCC(c2noc(-c3ccccc3)n2)C1 (configuration not stated)	active
O=C(NCC1CCOCC1)C1COc2ccccc2O1 (configuration not stated)	inactive
CC(C)Nc1ncc(C(=O)NC2CCCN(CCc3ccccc3)C2)cn1 (configuration not stated)	inactive
Cc1cc(C2CCCN2C(=O)c2ccc(F)c(F)c2)on1 (configuration not stated)	inactive
CN(CC1CCOCC1)C(=O)c1ccc(Cl)cc1	inactive
CC(C)OCCCNC(=O)C1Cn2cccc2C(=O)N1C (configuration not stated)	inactive
O=C(Nc1cccc(Cl)c1)c1cnc2c(c1)N(C(=O)CCc1ccccc1)CCC2	inactive

## Input Would you mind telling me which call this test gave COc1ccc(-c2noc(-c3nnn4c3COC(c3ccc(F)cc3)C4)n2)cc1 (configuration not stated) ?
## Output inactive

## Input Would you mind telling me which call this test gave COc1ccccc1CN1C(=O)COC[C@@H]1[C@H](O)c1ccc(NC(=O)c2ccc(C#N)cc2)cc1 ?
## Output active

## Input Would you mind telling me which call this test gave c1cncc(-c2noc(C3CCCN(Cc4cc5n(n4)CCNC5)C3)n2)c1 (configuration not stated) ?
## Output inactive

## Input Would you mind telling me which call this test gave Cc1nc2c(c(-c3ccc(Cl)cc3)n1)CCN([S+](=O)([O-])c1c(C)noc1C)CC2 ?
## Output inactive

## Input Would you mind telling me which call this test gave CC(C)CCNC(=O)c1cnc2c(c1)N(Cc1ccccc1)CCC2 ?
## Output active

## Input Would you mind telling me which call this test gave Cc1noc(C2CC3(CCN(C(=O)c4sc(C)nc4C)CC3)CN2C)n1 (configuration not stated) ?
## Output inactive

## Input Would you mind telling me which call this test gave O=C(NCc1ccc(F)cc1)C1COC2(CCCCC2)N1C(=O)c1ccccc1 (configuration not stated) ?
## Output inactive
